# target-or-system: 2-5A-dependent ribonuclease (Mus musculus) (UniProt Q05921)
# Sequence (Q05921 whole entry): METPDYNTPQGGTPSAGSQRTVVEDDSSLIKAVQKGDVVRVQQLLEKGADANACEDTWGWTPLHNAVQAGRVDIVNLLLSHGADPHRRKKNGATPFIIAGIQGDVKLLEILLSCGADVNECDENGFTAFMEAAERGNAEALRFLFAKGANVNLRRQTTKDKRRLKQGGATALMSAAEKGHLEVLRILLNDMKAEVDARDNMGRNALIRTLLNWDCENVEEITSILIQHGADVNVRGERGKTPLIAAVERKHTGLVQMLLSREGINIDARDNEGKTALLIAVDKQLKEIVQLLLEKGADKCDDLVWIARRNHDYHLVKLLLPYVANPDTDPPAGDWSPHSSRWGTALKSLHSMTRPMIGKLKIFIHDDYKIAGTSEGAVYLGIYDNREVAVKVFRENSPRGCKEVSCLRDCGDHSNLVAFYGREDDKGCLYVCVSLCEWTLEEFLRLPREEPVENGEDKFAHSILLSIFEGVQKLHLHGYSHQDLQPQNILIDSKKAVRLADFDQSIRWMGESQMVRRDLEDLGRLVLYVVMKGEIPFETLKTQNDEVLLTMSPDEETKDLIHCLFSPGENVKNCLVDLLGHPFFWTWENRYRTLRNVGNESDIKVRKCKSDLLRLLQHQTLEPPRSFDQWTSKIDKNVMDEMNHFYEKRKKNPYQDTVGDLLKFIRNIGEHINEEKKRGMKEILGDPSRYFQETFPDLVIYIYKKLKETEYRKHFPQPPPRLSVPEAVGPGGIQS
# procedure-details: Molar concentration required to displace 50% of the radiolabeled probe from 2-5A (Adenosine dependent endoribonuclease) in endonuclease-nitrocellulose complex
# Concentration annotations
Give a plain numeric answer without units written out.

compound | assay-value
Nc1ncnc2c1ncn2C1O[C@H](COP(=O)(O)O[C@H]2C(n3cnc4c(N)ncnc43)O[C@H](COP(=O)(O)O[C@H]3C(n4cnc5c(N)ncnc54)O[C@H](COP(=O)(O)O[C@H]4C(n5cnc6c(N)ncnc65)O[C@H](COP(=O)(O)O[C@H]5C(n6cnc7c(N)ncnc76)O[C@H](COP(=O)(O)O[C@H]6C(n7cnc8c(N)ncnc87)O[C@H](COP(=O)(O)O)[C@H]6O)[C@H]5O)[C@H]4O)[C@H]3O)[C@H]2O)[C@@H](O)[C@H]1O (stereo partly drawn) | 1e-09
Nc1ncnc2c1ncn2C1O[C@H](COP(=O)(O)O[C@H]2C(n3cnc4c(N)ncnc43)O[C@H](COP(=O)(O)O[C@H]3C(n4cnc5c(N)ncnc54)O[C@H](COP(=O)(O)O[C@H]4C(n5cnc6c(N)ncnc65)O[C@H](COP(=O)(O)O[C@H]5C(n6cnc7c(N)ncnc76)O[C@H](COP(=O)(O)O[C@H]6C(n7cnc8c(N)ncnc87)O[C@H](CO)[C@H]6O)[C@H]5O)[C@H]4O)[C@H]3O)[C@H]2O)[C@@H](O)[C@H]1O (stereo partly drawn) | 1.3e-08

Here is the next item to consider.
Inquiry: Consider the compound Nc1ncnc2c1ncn2[C@@H]1O[C@H](COP(=O)(O)O[C@@H]2[C@H](O)[C@@H](COP(=O)(O)O[C@@H]3[C@H](O)[C@@H](CO)O[C@H]3n3cnc4c(N)ncnc43)O[C@H]2n2cnc3c(N)ncnc32)[C@@H](O)[C@H]1O and give its measured Concentration.
Reply text: 8e-07
